# test: Pharmacokinetics in rats (exposure and oral availability)
# Assay type: in vivo
# study.conditions: male, ICR, rat, 5 mg/kg, PO (5 mpk), dosed compound detected in plasma
measurement.type: Cmax (ng/mL)
Field: numeric (ng/mL). Do not append units.

[[record]]
compound = "Cc1c(NC(=O)c2cc(C3CC3)c(CNCC34CCC(C(=O)O)(CC3)C4)cn2)cccc1-c1cccc(NC(=O)c2cc(C3CC3)c(CNCC34CCC(C(=O)O)(CC3)C4)cn2)c1C [Example 4]"
result = 1980


Okay, next one:
What the record says about Cc1c(NC(=O)c2cc(C3CC3)c(CNC34CCC(C(=O)O)(CC3)CC4)cn2)cccc1-c1cccc(NC(=O)c2cc(C3CC3)c(CNC34CCC(C(=O)O)(CC3)CC4)cn2)c1C [Example 1] : Cmax is 426
